- Tested on: NCI-H522 lung
- test-description: NCI tumour cell line growth inhibition, 48 h
measurement-label: TGI (µM)

1. O=C(Nc1ccccc1)OCCN=C1c2ccccc2C(Br)C(Br)c2ccccc21 (stereo not drawn) : 8.41
2. C=C1C[C@@H]2CC[C@@]34CC5O[C@H]6C(O[C@H]7CC[C@H](CC(=O)O[C@@H]8[C@@H](C)[C@@H]9O[C@@H]%10C[C@]%11(C[C@@H]%12O[C@]%13(C[C@H](C)[C@@H]%14O[C@@H]%15CC(C(O)CO)O[C@@H]%15C[C@@H]%14O%13)C[C@H](C)[C@@H]%12O%11)O[C@@H]%10C[C@@H]9O[C@H]8CC8O[C@@H](CC[C@@H]1O2)C[C@@H](C)C8(O)CO)O[C@@H]7[C@@H]6O3)[C@H]5O4 (stereo partly drawn) : 0.614
3. CC1=C(C(=O)OCCO[N+](=O)[O-])C(c2cccc([N+](=O)[O-])c2)C(C(=O)OC(C)C)=C(C)N1 (stereo not drawn) : 34.9
4. CC(=O)NC1=C(NCC(C)(C)C)C(=O)c2ccccc2C1=O : 49.7

Every entry's value here was drawn from PubChem BioAssay (NCI).
